- MEASURED_ON: human GIPR (Homo sapiens, UniProt P48546)
- Format: cell-based
- Design: host or cells: COS-7
- STUDY_CONDITIONS: Emax normalized to highest concentration of endogenous ligand; Table 2
READOUT: Efficacy GIPR
The reply should be a number, written without any unit.

Find the recorded Efficacy GIPR belonging to (C16)H-Aib-DGTFISDYSTILD-Aib-LAARDFINWLIQTKITK-OH [Compound no. 6] and report it.
108

Next up: (C16)HADGTFISDYSTILDELAARDFINWLIQTKITKNDWKHNITQ [Compound no. 48]
112

Same lookup for H-Aib-DGTF-K(γGlu-C16)-SDYSTILDNLAARDFINWLIQTKITK-OH [Compound no. 10] , please.
102

And then H-Aib-DGTFISDYS-K(γGlu-C16)-ILDNLAARDFINWLIQTKITK-OH [Compound no. 12] , what is it?
107

Now consider H-Aib-DGTFISDY-K(γGlu-C16)-TILDNLAARDFINWLIQTKGKKNDWKHNITQ-NH2 [Compound no. 14] and answer again.
101

How about this substance: H-Aib-DG-K(γGlu-C16 diacid)-FISDYST-Aib-LDNLAARDFINWLIQTKITK-OH [Compound no. 25]
93

Also H-Aib-DG-K(γGlu- γGlu-C16)-FISDYST-Aib-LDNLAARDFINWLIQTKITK-OH [Compound no. 28] , if possible.
105

# repeat for (C16)H-Aib-DGTFISDYST-Aib-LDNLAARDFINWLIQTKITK-OH [Compound no. 5]
111

----------
- MEASURED_ON: human GLP-2R (Homo sapiens, UniProt O95838)
- Construct: host or cells: COS-7
- Sequence (O95838 whole entry): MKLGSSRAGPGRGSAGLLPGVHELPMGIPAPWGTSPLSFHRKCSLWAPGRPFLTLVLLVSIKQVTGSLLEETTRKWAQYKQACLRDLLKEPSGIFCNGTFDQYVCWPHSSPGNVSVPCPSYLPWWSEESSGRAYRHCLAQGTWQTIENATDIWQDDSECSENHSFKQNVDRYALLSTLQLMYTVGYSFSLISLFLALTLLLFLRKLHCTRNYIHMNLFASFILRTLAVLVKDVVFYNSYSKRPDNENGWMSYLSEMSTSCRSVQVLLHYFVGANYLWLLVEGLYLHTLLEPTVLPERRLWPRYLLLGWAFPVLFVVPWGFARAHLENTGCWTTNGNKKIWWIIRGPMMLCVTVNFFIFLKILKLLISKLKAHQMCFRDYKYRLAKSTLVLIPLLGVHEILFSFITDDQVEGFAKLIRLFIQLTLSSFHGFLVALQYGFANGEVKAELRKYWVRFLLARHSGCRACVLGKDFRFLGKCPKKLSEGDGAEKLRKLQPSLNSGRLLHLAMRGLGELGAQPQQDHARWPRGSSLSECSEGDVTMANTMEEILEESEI
- EXPERIMENT_SUMMARY: HitHunter cAMP assay in transiently transfected COS-7 cells, human GLP-2R
- Assay type: cell-based
- STUDY_CONDITIONS: Emax normalized to highest concentration of endogenous ligand; Table 2
READOUT: Efficacy GLP-2R
Form: value (number only, do not type unit).

Which Efficacy GLP-2R reading was recorded for the substance (C16)HADGTFISDYSTILDELAARDFINWLIQTKITKNDWKHNITQ [Compound no. 48] ?
69

Also need (C16-diacid)H-Aib-DGTFISDYST-Aib-LDKLAARDFINWLIETKITK-OH [Compound no. 23] , thanks.
86

Same for (C16)HADGTFISDYSTILDAibLAARDFINWLIQTKITKNDWKHNITQ [Compound no. 16]
64

Also (C10)H-Aib-DGTFISDYST-Aib-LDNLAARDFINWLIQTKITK-OH [Compound no. 44] , if possible.
100

Further, for (C16)HADGTFISDYSTILDNLAAKDFINWLIQTKITK [Compound no. 45] ?
59

Also H-Aib-DGTFISDYS-K(γGlu-C16)-ILDNLAARDFINWLIQTKITK-OH [Compound no. 12] ?
79

One more substance: (C16)HADGTFISDYSTILDNLAARDFINWLIETKITKNDWKHNITQ [Compound no. 51]
66

Can you check (C16)H-Aib-DGTFISDYST-Aib-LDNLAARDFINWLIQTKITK-OH [Compound no. 5] next?
109

What do you have for H-Aib-DGTFISDY-K(γGlu-C16)-TAib-LDNLAARDFINWLIQTKITKNDWKHNITQ-OH [Compound no. 37] ?
97

----------
- MEASURED_ON: human GIPR (Homo sapiens)
- Format: cell-based
- Set-up: host or cells: HEK293
- STUDY_CONDITIONS: beta-arrestin 2 recruitment, AUC of sigmoid curves up to 100 nM
Task for the reader: assign each of the following substances its reported AUC ± SD.
# answer = number (no unit)

API: value(readout=AUC ± SD, system=human GIPR (Homo sapiens)) for record H-Aib-DGTFISDYS-K(γGlu-C16)-Aib-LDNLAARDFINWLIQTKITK-OH [Compound no. 35]
58

# iterate: H-Aib-DGTFISDY-K(γGlu-C16)-T-Aib-LDALAARDFIEWLIQTKITK-OH [Compound no. 33]
23

Also need H-Aib-DGTFISDY-K(γGlu-C16)-TAib-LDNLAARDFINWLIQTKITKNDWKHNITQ-OH [Compound no. 37] , thanks.
0

Try the substance YAEGTFISDYSIAMDKIHQQDFVNWLLAQKGKKNDWKHNITQ [hGIP, reference compound]
223

How about H-Aib-DG-K(γGlu-C10)-FISDYST-Aib-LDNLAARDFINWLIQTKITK-OH [Compound no. 24] ?
117

Can you check H-Aib-DG-K(γGlu-C16 diacid)-FISDYST-Aib-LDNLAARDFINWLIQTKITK-OH [Compound no. 25] next?
42

Param item: H-Aib-DGTFISDY-K(γGlu-C10)-TILDKLAARDFIEWLIATKITK-OH [Compound no. 31]
0

Same question for H-Aib-DGTFISDY-K(γGlu-C16)-TILDNLAARDFINWLIQTKITK-OH [Compound no. 11] please.
61

----------
Kindly state Emax ± SD (%) for each of the entries shown.
- MEASURED_ON: human SNAP-GIPR (Homo sapiens)
- Construct: host or cells: HEK293A
- Sequence (P48546 22-466): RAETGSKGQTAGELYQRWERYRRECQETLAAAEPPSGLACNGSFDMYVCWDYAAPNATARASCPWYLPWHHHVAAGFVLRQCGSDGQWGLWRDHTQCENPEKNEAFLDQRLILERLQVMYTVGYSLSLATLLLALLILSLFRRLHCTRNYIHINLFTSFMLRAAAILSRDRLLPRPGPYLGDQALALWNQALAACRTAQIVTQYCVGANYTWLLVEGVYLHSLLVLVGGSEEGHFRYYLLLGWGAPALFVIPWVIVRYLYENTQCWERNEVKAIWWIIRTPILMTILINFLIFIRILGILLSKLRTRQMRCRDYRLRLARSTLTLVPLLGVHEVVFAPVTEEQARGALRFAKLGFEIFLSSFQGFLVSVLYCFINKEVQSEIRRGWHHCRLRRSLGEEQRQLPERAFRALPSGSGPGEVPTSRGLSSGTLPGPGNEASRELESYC
- Type: cell-based
- STUDY_CONDITIONS: GIPR internalization; NA = no activity
Reply numerically in %, unit not repeated.

Need Emax ± SD (%) of H-Aib-DGTFISDY-K(γGlu-C16)-T-Aib-LDALAARDFIEWLIQTKITK-OH [Compound no. 33] , thanks.
25

Field entry: H-Aib-DGTFISDY-K(γGlu-C16)-TAib-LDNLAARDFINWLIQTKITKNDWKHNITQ-OH [Compound no. 37]
24

Please give the result for Ac-H-Aib-DGTFISDYS-K(γGlu-C16)-Aib-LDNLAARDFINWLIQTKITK-OH [Compound no. 36] too.
58

What do we get for H-Aib-DG-K(γGlu-C16 diacid)-FISDYST-Aib-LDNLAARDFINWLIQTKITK-OH [Compound no. 25] ?
46

Also check H-Aib-DGTFISDY-K(γGlu-C16)-TILDNLAARDFINWLIQTKITK-OH [Compound no. 11]
24

Moving on to H-Aib-DG-K(γGlu-C10)-FISDYST-Aib-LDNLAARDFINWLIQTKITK-OH [Compound no. 24]
68

----------
- MEASURED_ON: human GLP-2R (Homo sapiens)
- Construct: host or cells: COS-7
- EXPERIMENT_SUMMARY: HitHunter cAMP assay in transiently transfected COS-7 cells, human GLP-2R;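 also: cells kept 30 min at 37 °C in buffer with 1 mM IBMX, then given ligand for another 30 min at 37 °C before cAMP readout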
- Assay type: cell-based
- STUDY_CONDITIONS: Emax normalized to highest concentration of endogenous ligand; Table 2
Classification field: 1 (yes) = Efficacy GLP-2R at or over 90; 0 (no) = Efficacy GLP-2R under 90.

Does Efficacy GLP-2R meet or surpass 90 for (C16-diacid)H-Aib-DGTFISDYST-Aib-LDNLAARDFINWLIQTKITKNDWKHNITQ-OH [Compound no. 40] ?
1 (yes)

Same again, this time with (C16)H-Aib-DGTFISDYSTILDNLAARDFIEWLIQTKIT-OH [Compound no. 8]
1 (yes)

Also check (C16-diacid)H-Aib-EGTFISDYST-Aib-LDNLAAKDFINWLIQTKITKNDWKHNITQ-OH [Compound no. 43]
0 (no)

Also need (C16)H-Aib-DGTFISDYSTILDNLAARDFIEWLIQTKITK-OH [Compound no. 7] , thanks.
1 (yes)

Would you kindly repeat that for (C16)HADGTFISDYSTILELLAARDFINWLIQTKITKNDWKHNITQ [Compound no. 15] ?
0 (no)

Similarly, (C16)HADGTFISDYSTILDNLAARDFINWLIQTKIT [Compound no. 2] ?
0 (no)

Cool, now H-Aib-DGTFISDY-K(γGlu-C16)-T-Aib-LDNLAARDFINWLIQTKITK-OH [Compound no. 29]
1 (yes)

Field entry: (C16-diacid)H-Aib-EGTFISDYST-Aib-LDKLAARDFINWLIQTKITK-OH [Compound no. 21]
0 (no)

Consider next the substance H-Aib-DG-K(γGlu- γGlu-C16)-FISDYST-Aib-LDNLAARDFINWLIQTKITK-OH [Compound no. 28] in the same way.
1 (yes)

Likewise for H-Aib-DGTFISDYSTIL-K(γGlu-C16)-NLAARDFINWLIQTKITK-OH [Compound no. 13] ?
1 (yes)

And the next one, (C16-diacid)H-Aib-DGTFISDYST-Aib-LDNLAAKDFINWLIQTKITKNDWKHNITQ-OH [Compound no. 42] ?
1 (yes)

Also (C16)HADGTFISDYSTILDNLAARDFIEWLIQTKITKNDWKHNITQ [Compound no. 50] ?
0 (no)
